Recorded values, source PubChem BioAssay (NCATS).

max response values by entry
Test: qHTS assay for small molecule antagonists of retinoid X receptor alpha signaling (AID 588546);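 note: cells stimulated with 9-cis-retinoic acid as agonist; % is set by controls: 0 for no effect and ±100 for the full control effect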
Details: HEK293T RXRa-UAS-bla, beta-lactamase ratio, antagonist mode; measured here: W530 green channel, cytotoxicity proxy
Records with an inconclusive call do not appear.
observed property: max response (%)

1) CC1(C(=O)Nc2ccc(O)c(Cl)c2Cl)CCCCC1; -23.6
2) CC/C(=N\OC/C=C/Cl)C1=C(O)CC(C2CCOCC2)CC1=O (stereo not drawn); 0.449
3) COC(=O)c1ccccc1S(=O)(=O)NC(=O)Nc1nc(C)nc(OC)n1; -10.3
4) CN(C)c1nc(=O)n(C2CCCCC2)c(=O)n1C; -2.46
5) O=Cc1cccc(Oc2ccccc2)c1; 1.81
6) Brc1ccc(Oc2ccccc2)cc1; -7.34
7) N#CC(Cl)Cl; 6.6
8) CCOCn1c(-c2ccc(Cl)cc2)c(C#N)c(Br)c1C(F)(F)F; 0.12
9) CC(C)(C)C(=O)[C@@H](Oc1ccc(Cl)cc1)n1cncn1; -6.66
10) CC(Oc1cccc(Cl)c1)C(=O)O (stereo not drawn); -2.12
11) C=CC1(C)OC(=O)N(c2cc(Cl)cc(Cl)c2)C1=O (stereo not drawn); -0.794
12) COP(=O)(OC)Oc1nc(Cl)c(Cl)cc1Cl; -0.949
13) Brc1ccc(Br)cc1; -5.87
